- Tested on: RXF 393 renal
- procedureDetails: NCI-60 one-dose screen, 48 h (100 = growth as untreated, 0 = no growth, -100 = all killed)
- conditionsUsed: 10 µM
Compounds without any hit were thinned out: in the full panel of roughly 83,000, 20% have a hit.
Items are presented alongside their recorded growth.
State the answer as a number, implicitly in %.

Illustrative cases are given below, each with its answer.
Which growth is reported for this compound? Cc1c2c[n+](C(C)C)ccc2c(C)c2c1[nH]c1ccccc12
60.3

Which growth is reported for this compound? CC1/C=C/C=C/C=C/C=C/C=C/C=C/C=C/C(O[C@@H]2O[C@H](C)[C@H](O)[C@@H](O)[C@@H]2N)CC(O)C(C(=O)O)C(O)CC(=O)CC(O)CC(O)CC(O)CC(=O)CCCC(=O)CC(=O)OC1C(C)CC(C)C(O)CC(=O)c1ccc(N)cc1 (some centres undefined)
-90.9

Which growth is reported for this compound? CCCC1(CN2c3ccccc3Sc3ccc(Cl)cc32)CCN(CC)C1 (centres undefined)
-33.7

Which growth is reported for this compound? C#C[C@]1(O)CCC2C3CCc4cc(OC5CCCC5)ccc4C3CC[C@@]21C (some centres undefined)
97.7

Which growth is reported for this compound? CN(C)c1ccc(/C=N/NC(=O)c2cccc3ccccc23)c(Cl)c1
7.47

Which growth is reported for this compound? CC(C)c1cc(N=O)cc(C(C)C)c1O
110

Which growth is reported for this compound? O=c1cn[nH]c2ccc(Br)cc12
95.3

Which growth is reported for this compound? CCCCc1oc2ccccc2c1C(=O)c1cc(I)c(OCCN(CC)CC)c(I)c1
-70.3

---
Which growth is reported for this compound? COc1cc2c3c(n([C@@H]4CCOC4)c(=O)c2cc1OC)-c1cc2c(cc1C3=O)OCO2
52.4

Which growth is reported for this compound? C[C@H]1[C@H](OC(=O)CCC(=O)O)O[C@@H]2O[C@]3(C)CC[C@H]4[C@H](C)CC[C@@H]1[C@@]24OO3
55.9

Which growth is reported for this compound? Cc1ccc(/C=C/C(=O)C(=O)/C=C/c2ccc(C)cc2)cc1
117

Which growth is reported for this compound? CCN1CCN(CCC(=O)Nc2cccc(-n3cc(-c4ccncc4)c(-c4ccc(Cl)c(OC)c4)n3)c2)CC1
-7.05

Which growth is reported for this compound? CCN(CC)CCOc1cccc2c1C(=O)c1ccccc1C2=O
79.9

Which growth is reported for this compound? CCOC(=O)CC(S(=O)(=O)c1ccccc1)S(=O)(=O)c1ccccc1
57.5

Which growth is reported for this compound? CCOC(=O)c1sc2ncnc(Nc3ccc4c(cnn4C(=O)Nc4ccccc4)c3)c2c1C
55.4

Which growth is reported for this compound? COc1ccc(C(=O)c2ccccc2CN2C(=O)c3ccccc3C2=O)cc1
107

Which growth is reported for this compound? COc1ccc(-c2nn(-c3cccc(Cl)c3)cc2-c2cc(-c3ccccc3)nc(N)n2)cc1
56.2

Which growth is reported for this compound? NC(CSC(c1ccccc1)(c1ccccc1)c1cccc2ccccc12)C(=O)O (centres undefined)
94.2

Which growth is reported for this compound? CN(C)CCOc1ccccc1NC1=C(Cl)C(=O)C(Nc2ccccc2OCCN(C)C)=C(Cl)C1=O
68.5

Which growth is reported for this compound? CNC(=O)c1cn(C2CC2)c2cc(N3CCN(C(=O)c4cc(OC)c(OC)c(OC)c4)CC3)c(F)cc2c1=O
112

Which growth is reported for this compound? O=[N+]([O-])c1ccc(NCSc2ccc(Cl)cc2)cc1
103

meta.source: PubChem BioAssay (NCI)
